Biological target: GST-MCL-1 (Homo sapiens, UniProt Q07820)
Sequence (Q07820 whole entry): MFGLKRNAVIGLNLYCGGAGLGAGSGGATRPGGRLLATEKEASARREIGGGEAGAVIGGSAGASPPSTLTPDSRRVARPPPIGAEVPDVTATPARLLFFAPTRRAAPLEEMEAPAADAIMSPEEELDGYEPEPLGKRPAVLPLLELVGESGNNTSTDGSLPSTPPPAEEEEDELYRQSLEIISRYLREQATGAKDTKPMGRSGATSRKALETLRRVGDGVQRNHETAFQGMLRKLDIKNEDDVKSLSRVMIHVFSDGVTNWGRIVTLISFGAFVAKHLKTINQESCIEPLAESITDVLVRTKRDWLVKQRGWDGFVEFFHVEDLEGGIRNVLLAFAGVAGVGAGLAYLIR
Test: TR-FRET MCL-1 binding assay (competition with probe F-Bak)
Settings: MCL-1 Binding Ki (nM, 10% HS), in the presence of 10% HS (human serum)
Method: Tb-anti-GST antibody was purchased from Invitrogen (Catalog No. PV4216). […] The samples were then mixed on a shaker for 1 minute and incubated for an additional 2 hours at room temperature. […] Fluorescence was measured on the Envision (Perkin Elmer) using a 340/35 nm excitation filter and 520/525 (F-Bak) and 495/510 nm (Tb-labeled anti-his antibody) emission filters. […]
measured metric: Ki

compound: Cc1c(Cl)c2c(Cl)c(C)c1-c1c(-c3ccc(F)cc3)sc3ncnc(c13)O[C@@H](C(=O)O)Cc1cc(ccc1OCc1ccnc(-c3cccc(CCN4CCOCC4)c3)n1)OC[C@@H](CN1CCN(C)CC1)O2
val: 0.175 nM

compound: COCCOCCOCCC1CCN(C[C@@H]2COc3ccc(OCc4ccnc(-c5ccccc5OC)n4)c(c3)C[C@H](C(=O)O)Oc3ncnc4sc(-c5ccc(F)cc5)c(c34)-c3ccc(c(Cl)c3C)O2)CC1 (atropisomer, axis not shown) [Example 21]
val: 0.556 nM

compound: COCCOCCOCCOCC1(C)CC=C(c2nccc(COc3ccc4cc3C[C@H](C(=O)O)Oc3ncnc5sc(-c6ccc(F)cc6)c(c35)-c3c(C)c(Cl)c(c(Cl)c3C)O[C@H](CN3CCN(C)CC3)CO4)n2)CC1 (single isomer, unassigned) [Example 119]
val: 0.16 nM

compound: COCCOCCOCCOCCN1CCN(C[C@@H]2COc3ccc(OCc4ccnc(-c5ccccc5OC)n4)c(c3)C[C@H](C(=O)O)Oc3ncnc4sc(-c5ccc(F)cc5)c(c34)-c3ccc(c(Cl)c3C)O2)CC1 (atropisomer, axis not shown)
val: 0.052 nM

---

Target: GST-MCL-1 (Homo sapiens)
Test: TR-FRET MCL-1 binding assay (competition with probe F-Bak)
Details: without HS; read-out: MCL-1 Binding Ki
pKi: −log10 of the molar value.
Entries and their measured pKi follow.

compound: COCCOCCOCCOCCOCCOCC1(C)CC=C(c2nccc(COc3ccc4cc3C[C@H](C(=O)O)Oc3ncnc5sc(-c6ccc(F)cc6)c(c35)-c3c(C)c(Cl)c(c(Cl)c3C)O[C@H](CN3CCN(C)CC3)CO4)n2)CC1 (single isomer, unassigned) [Example 84]
pKi: 10.48
--
compound: COCCOCCOCCOCCOC[C@H]1CCCC[C@@H]1c1nccc(COc2ccc3cc2C[C@H](C(=O)O)Oc2ncnc4sc(-c5ccc(F)cc5)c(c24)-c2c(C)c(Cl)c(c(Cl)c2C)O[C@H](CN2CCN(C)CC2)CO3)n1 (relative stereo) [Example 124]
pKi: 10.92
--
compound: COCCOCCOCCOCC1(F)CC=C(c2nccc(COc3ccc4cc3C[C@H](C(=O)O)Oc3ncnc5sc(-c6ccc(F)cc6)c(c35)-c3c(C)c(Cl)c(c(Cl)c3C)O[C@H](CN3CCN(C)CC3)CO4)n2)CC1 (single isomer, unassigned) [Example 101]
pKi: 10.70
--
compound: CO[C@@H]1CO[C@H]2[C@@H]1OC[C@H]2OCCOc1nccc(COc2ccc3cc2C[C@H](C(=O)O)Oc2ncnc4sc(-c5ccc(F)cc5)c(c24)-c2c(C)c(Cl)c(c(Cl)c2C)O[C@H](CN2CCN(C)CC2)CO3)n1 [Example 134]
pKi: 10.33

---

Entries and their measured IC50 follow.
Test system: AMO-1 human multiple myeloma tumor cell line
Assay: AMO-1 cell viability assay (CellTiter-Glo, 24 hours)
Assay type: cell-based
Settings: Homo sapiens, AMO1, 24 h, read-out: AMO-1 Viability IC50 (μM, 10% FBS), 10% FBS, 24 hours of compound treatment
measured metric: IC50 (nM)

compound: COCCOCCOCCOCCOCCOCC1(c2nccc(COc3ccc4cc3C[C@H](C(=O)O)Oc3ncnc5sc(-c6ccc(F)cc6)c(c35)-c3c(C)c(Cl)c(c(Cl)c3C)O[C@H](CN3CCN(C)CC3)CO4)n2)CCCC1
unit label: nM
val: 0.409
//
compound: COCCOCCOCCOc1ccc(-c2nccc(COc3ccc4cc3C[C@H](C(=O)O)Oc3ncnc5sc(-c6ccc(F)cc6)c(c35)-c3c(C)c(Cl)c(c(Cl)c3C)O[C@H](CN3CCN(C)CC3)CO4)n2)cn1
unit label: nM
val: 0.27
//
compound: COC[C@@H](COc1ccc(-c2nccc(COc3ccc4cc3C[C@H](C(=O)O)Oc3ncnc5sc(-c6ccc(F)cc6)c(c35)-c3c(C)c(Cl)c(c(Cl)c3C)O[C@H](CN3CCN(C)CC3)CO4)n2)cc1)OC
unit label: nM
val: 0.403
//
compound: Cc1c(Cl)c2c(Cl)c(C)c1-c1c(-c3ccc(F)cc3)sc3ncnc(c13)O[C@@H](C(=O)O)Cc1cc(ccc1OCc1ccnc(N3CC4CC(C4)C3)n1)OC[C@@H](CN1CCN(C)CC1)O2
unit label: nM
val: 1.12
//
compound: COCCOCCOCCOCc1cc(OC[C@H]2COCCO2)ccc1-c1nccc(COc2ccc3cc2C[C@H](C(=O)O)Oc2ncnc4sc(-c5ccc(F)cc5)c(c24)-c2c(C)c(Cl)c(c(Cl)c2C)O[C@H](CN2CCN(C)CC2)CO3)n1
unit label: nM
val: 0.188
//
compound: Cc1c2ccc(c1Cl)O[C@H](CN1CCN(C)CC1)COc1ccc(OCc3ccnc(-c4cccc(=O)n4C)n3)c(c1)C[C@H](C(=O)O)Oc1ncnc3sc(-c4ccc(F)cc4)c-2c13
unit label: nM
val: 2.69
//
compound: COCCOCCOC[C@@H]1CC=C(c2nccc(COc3ccc4cc3C[C@H](C(=O)O)Oc3ncnc5sc(-c6ccc(F)cc6)c(c35)-c3c(C)c(Cl)c(c(Cl)c3C)O[C@H](CN3CCN(C)CC3)CO4)n2)CC1
unit label: nM
val: 0.0939
//
compound: COCCOCCOC[C@@]1(F)CC=C(c2nccc(COc3ccc4cc3C[C@H](C(=O)O)Oc3ncnc5sc(C6=CCCC6)c(c35)-c3c(C)c(Cl)c(c(Cl)c3C)O[C@H](CN3CCN(C)CC3)CO4)n2)CC1 (relative stereo)
unit label: nM
val: 0.191
//
compound: COCCOCCOCCOCCCN1CCN(c2nccc(COc3ccc4cc3C[C@H](C(=O)O)Oc3ncnc5sc(-c6ccc(F)cc6)c(c35)-c3c(C)c(Cl)c(c(Cl)c3C)O[C@H](CN3CCN(C)CC3)CO4)n2)CC1
unit label: nM
val: 4.2

---

Target: GST-MCL-1 (Homo sapiens, UniProt Q07820)
Assay: TR-FRET MCL-1 binding assay (competition with probe F-Bak)
Conditions: MCL-1 Binding Ki (nM, 10% HS), in the presence of 10% HS (human serum)
measured metric: log10 Ki (log10 of the value in nM)

compound: COCCOCCOC[C@H]1CC=C(c2nccc(COc3ccc4cc3C[C@H](C(=O)O)Oc3ncnc5sc(-c6ccc(F)cc6)c(c35)-c3c(C)c(Cl)c(c(Cl)c3C)O[C@H](CN3CCN(C)CC3)CO4)n2)CC1
target under test: GST-MCL-1 (Homo sapiens, UniProt Q07820)
measured metric: log10 Ki
val: -0.47

compound: COCCOCCOCCOCC1CN(c2nccc(COc3ccc4cc3C[C@H](C(=O)O)Oc3ncnc5sc(-c6ccc(F)cc6)c(c35)-c3c(C)c(Cl)c(c(Cl)c3C)O[C@H](CN3CCN(C)CC3)CO4)n2)C1
target under test: GST-MCL-1 (Homo sapiens, UniProt Q07820)
measured metric: log10 Ki
val: 0.03

compound: CO[C@H]1O[C@H](COc2cccc(-c3nccc(COc4ccc5cc4C[C@@H](C(=O)O)Oc4ncnc6sc(-c7ccc(F)cc7)c(c46)-c4ccc(c(Cl)c4C)O[C@H](CN4CCN(C)CC4)CO5)n3)c2)[C@@H](OC)[C@H](OC)[C@@H]1OC
target under test: GST-MCL-1 (Homo sapiens, UniProt Q07820)
measured metric: log10 Ki
val: 2.05

compound: COCCOCCOCCO[C@H]1CC[C@@H](c2nccc(COc3ccc4cc3C[C@H](C(=O)O)Oc3ncnc5sc(-c6ccc(F)cc6)c(c35)-c3c(C)c(Cl)c(c(Cl)c3C)O[C@H](CN3CCN(C)CC3)CO4)n2)CC1
target under test: GST-MCL-1 (Homo sapiens, UniProt Q07820)
measured metric: log10 Ki
val: -1.08

compound: CO[C@H]1O[C@H](COc2cccc(-c3nccc(COc4ccc5cc4C[C@H](C(=O)O)Oc4ncnc6sc(-c7ccc(F)cc7)c(c46)-c4ccc(c(Cl)c4C)O[C@H](CN4CCN(C)CC4)CO5)n3)c2)[C@@H](OC)[C@H](OC)[C@@H]1OC
target under test: GST-MCL-1 (Homo sapiens, UniProt Q07820)
measured metric: log10 Ki
val: -0.22

compound: COCCOCCOCCOc1ccc(-c2nccc(COc3ccc4cc3C[C@H](C(=O)O)Oc3ncnc5sc(C6CCCCC6)c(c35)-c3c(C)c(Cl)c(c(Cl)c3C)O[C@H](CN3CCN(C)CC3)CO4)n2)cc1
target under test: GST-MCL-1 (Homo sapiens, UniProt Q07820)
measured metric: log10 Ki
val: 0.53

compound: COCCOCCOCCN1CCN(C[C@@H]2COc3ccc(OCc4ccnc(-c5ccccc5OC)n4)c(c3)C[C@H](C(=O)O)Oc3ncnc4sc(-c5ccc(F)cc5)c(c34)-c3ccc(c(Cl)c3C)O2)CC1 (atropisomer, axis not shown)
target under test: GST-MCL-1 (Homo sapiens, UniProt Q07820)
measured metric: log10 Ki
val: -1.24

compound: Cc1c(Cl)c2c(Cl)c(C)c1-c1c(-c3ccc(F)cc3)sc3ncnc(c13)O[C@@H](C(=O)O)Cc1cc(ccc1OCc1ccnc(-c3ccc(OCC4COCCOCCOCCOCCOCCO4)cc3)n1)OC[C@@H](CN1CCN(C)CC1)O2 (stereo partly drawn)
target under test: GST-MCL-1 (Homo sapiens, UniProt Q07820)
measured metric: log10 Ki
val: -1.29

compound: Cc1c(Cl)c2c(Cl)c(C)c1-c1c(-c3ccc(F)cc3)sc3ncnc(c13)O[C@@H](C(=O)O)Cc1cc(ccc1OCc1ccnc(N3C[C@H](O)[C@@H](O)C3)n1)OC[C@@H](CN1CCN(C)CC1)O2
target under test: GST-MCL-1 (Homo sapiens, UniProt Q07820)
measured metric: log10 Ki
val: 0.07
